Entries annotated with measured inhibition
assay procedure: growth inhibition of WT strain, primary screen, mitochondrial fusion inhibitor project, WT and mutant strains, chemical genetic (AID 1362)
condition label: mitochondrial fusion phenotypic screen, WT strain, growth inhibition; at 10 µM; stronger effect = higher value
About 4,000 (2.1%) of roughly 190,000 compounds were called active. The sample as a whole holds a higher share of actives than the screen did.
measurement type: inhibition (%)

>>> experimental_value("Cc1noc(COc2ccccc2OCc2onc(C)c2Cl)c1Cl")
64
>>> experimental_value("CCOC(=O)c1cccc(NC(=O)CCOc2ccccc2)c1")
3.69
>>> experimental_value("Cc1ccc2[nH]c(=O)c(CN(CC3COCCO3)C(=O)Nc3ccccc3C)cc2c1 (configuration not stated)")
-8.31
>>> experimental_value("CCC(C)CN1CCC(CO)(Cc2ccccc2Cl)CC1 (configuration not stated)")
11.3
>>> experimental_value("O=C(O)Cc1ccc(NCc2ccccc2Cl)cc1")
2.97
>>> experimental_value("Cc1cc([N+](=O)[O-])nn1CCCC(=O)Nc1cccnc1Cl")
-5.91
>>> experimental_value("COc1ccc(NC(C)=O)cc1NC(=O)CN1CCN(C2c3ccccc3-c3ccccc32)CC1")
60.1
>>> experimental_value("CNC(=S)N/N=C/c1cn(Cc2ccc(C)cc2)c2ccccc12")
74.4
>>> experimental_value("COC(=O)C1=C(N)Oc2c(oc(CO)cc2=O)C1c1c(F)cccc1Cl (configuration not stated)")
-8.54
>>> experimental_value("COc1ccnc(Oc2ccccc2)c1-c1ncn[nH]1")
3.65
>>> experimental_value("Cc1nc2ccccc2cc1OCc1ccc(F)cc1")
-15.6
>>> experimental_value("Cc1ccc(NC(=O)CN2CCC(C(N)=O)CC2)cc1[N+](=O)[O-]")
-8.61

----------
Entries annotated with measured inhibition
assay procedure: growth inhibition of WT strain, primary screen, mitochondrial fusion inhibitor project, WT and mutant strains, chemical genetic (AID 1362)
condition label: mitochondrial fusion phenotypic screen, mutant strain inhibition; at 10 µM
The whole screen tested about 190,000 compounds, of which about 4,000 (2.1%) were called active. This is one part of a sample in which actives are shown more often than they occur.
measurement type: inhibition

>>> experimental_value("Cc1ccc(-n2nc3c(c2NC(=O)c2ccc4c(c2)OCO4)CSC3)c(C)c1")
"3.65%"
>>> experimental_value("Cc1cc(=O)oc(C)c1C(=O)Nc1cnc2ccccc2c1")
"96.3%"
>>> experimental_value("Cc1cc(C)c2nc(NC(=O)c3ccc4c(c3)OCO4)sc2c1")
"-21.7%"
>>> experimental_value("O=C(Nc1ccc(F)cc1)N1CCN(c2ccc(F)cc2)CC1")
"-0.68%"
>>> experimental_value("Cc1cc(=O)oc(C)c1C(=O)NCCN(C)Cc1ccccc1")
"11.8%"
>>> experimental_value("Cc1ccc(C2=Nc3c(ccc4ccccc34)C(c3ccncc3)=NN2)cc1")
"45.6%"
>>> experimental_value("COCCNc1nc2nonc2nc1N1CCCC1c1nccs1 (stereo unspecified)")
"12.6%"
>>> experimental_value("CCC(C)(C)NC(=O)CN(C(=O)CCC(=O)Nc1cc(C)ccn1)c1ccc2c(c1)OCCO2")
"-3.2%"
>>> experimental_value("CC(=O)NC(NC(=S)Nc1c(C)n(C)n(-c2ccccc2)c1=O)C(Cl)(Cl)Cl (stereo unspecified)")
"0.58%"
>>> experimental_value("Cc1cccc(-n2nc3c(c2NC(=O)c2ccc(Br)o2)CSC3)c1C")
"6.28%"
>>> experimental_value("CCCn1nc(C(=O)N2CCCc3ccccc32)c2ccccc2c1=O")
"8.88%"
